conditions: in o-xylene, 343.15 K
solubility (mole fraction) for assorted compounds
Keep the answer to the number alone.

Any idea what solubility (mole fraction) was measured for "CCCCCCCC[n+]1ccn(C)c1.O=[N+]([O-])[O-]" ?
0.00762

Any idea what solubility (mole fraction) was measured for "CCCCCC[n+]1ccn(C)c1.O=[N+]([O-])[O-]" ?
0.00253

====

conditions: in n-octane, 328.15 K
ASSAY METRIC: solubility (mole fraction)
Keep the answer to the number alone.

MOLECULAR STRING: CCCCCCCC[n+]1ccn(C)c1.O=[N+]([O-])[O-]
solubility (mole fraction): 0.00123

API: the following record is the query input.
Any idea what solubility (mole fraction) was measured for "CCCCCC[n+]1ccn(C)c1.O=[N+]([O-])[O-]" ?
0.000458

====

settings: in benzene, 308.15 K
solubility (mole fraction) for assorted compounds
Keep the answer to the number alone.

MOLECULAR STRING: CCCCCC[n+]1ccn(C)c1.O=[N+]([O-])[O-]
solubility (mole fraction): 0.000308

API: the following record is the query input.
Any idea what solubility (mole fraction) was measured for "CCCCCCCC[n+]1ccn(C)c1.O=[N+]([O-])[O-]" ?
0.00041

====

details: in n-hexane, 323.15 K
ASSAY METRIC: solubility (mole fraction)
Keep the answer to the number alone.

Any idea what solubility (mole fraction) was measured for "CCCCCCCC[n+]1ccn(C)c1.O=[N+]([O-])[O-]" ?
0.00206

Any idea what solubility (mole fraction) was measured for "CCCCCC[n+]1ccn(C)c1.O=[N+]([O-])[O-]" ?
0.000895

====

solubility (mole fraction) for assorted compounds
details: in n-pentane, 288.15 K
Keep the answer to the number alone.

MOLECULAR STRING: CCCCCC[n+]1ccn(C)c1.O=[N+]([O-])[O-]
REPORTED: 0.000442

Any idea what solubility (mole fraction) was measured for "CCCCCCCC[n+]1ccn(C)c1.O=[N+]([O-])[O-]" ?
0.000955

====

conditions: in cyclohexane, 313.15 K
ASSAY METRIC: solubility (mole fraction)
Keep the answer to the number alone.

MOLECULAR STRING: CCCCCC[n+]1ccn(C)c1.O=[N+]([O-])[O-]
solubility (mole fraction): 0.000516

API: the following record is the query input.
Any idea what solubility (mole fraction) was measured for "CCCCCCCC[n+]1ccn(C)c1.O=[N+]([O-])[O-]" ?
0.00146

====

settings: in cyclohexane, 303.15 K
solubility (mole fraction) for assorted compounds

MOLECULAR STRING: CCCCCCCC[n+]1ccn(C)c1.O=[N+]([O-])[O-]
solubility (mole fraction): 0.00106

API: the following record is the query input.
Any idea what solubility (mole fraction) was measured for "CCCCCC[n+]1ccn(C)c1.O=[N+]([O-])[O-]" ?
0.0004

====

details: in toluene, 303.15 K
ASSAY METRIC: solubility (mole fraction)

Any idea what solubility (mole fraction) was measured for "CCCCCCCC[n+]1ccn(C)c1.O=[N+]([O-])[O-]" ?
0.00043

Any idea what solubility (mole fraction) was measured for "CCCCCC[n+]1ccn(C)c1.O=[N+]([O-])[O-]" ?
0.000334

====

solubility (mole fraction) for assorted molecules
details: in n-heptane, 318.15 K
Keep the answer to the number alone.

MOLECULAR STRING: CCCCCC[n+]1ccn(C)c1.O=[N+]([O-])[O-]
ASSAY METRIC: solubility (mole fraction)
REPORTED: 0.000358

API: the following record is the query input.
Any idea what solubility (mole fraction) was measured for "CCCCCCCC[n+]1ccn(C)c1.O=[N+]([O-])[O-]" ?
0.000856

====

solubility (mole fraction) for assorted molecules
details: in n-pentane, 293.15 K

MOLECULAR STRING: CCCCCC[n+]1ccn(C)c1.O=[N+]([O-])[O-]
solubility (mole fraction): 0.000484

API: the following record is the query input.
Any idea what solubility (mole fraction) was measured for "CCCCCCCC[n+]1ccn(C)c1.O=[N+]([O-])[O-]" ?
0.0011

====

details: in o-xylene, 303.15 K
ASSAY METRIC: solubility (mole fraction)
Keep the answer to the number alone.

MOLECULAR STRING: CCCCCCCC[n+]1ccn(C)c1.O=[N+]([O-])[O-]
REPORTED: 0.00529

API: the following record is the query input.
Any idea what solubility (mole fraction) was measured for "CCCCCC[n+]1ccn(C)c1.O=[N+]([O-])[O-]" ?
0.00145

====

conditions: in n-hexane, 288.15 K
ASSAY METRIC: solubility (mole fraction)
Keep the answer to the number alone.

MOLECULAR STRING: CCCCCC[n+]1ccn(C)c1.O=[N+]([O-])[O-]
solubility (mole fraction): 0.000306

API: the following record is the query input.
Any idea what solubility (mole fraction) was measured for "CCCCCCCC[n+]1ccn(C)c1.O=[N+]([O-])[O-]" ?
0.000683

====

conditions: in n-octane, 333.15 K
ASSAY METRIC: solubility (mole fraction)
Keep the answer to the number alone.

MOLECULAR STRING: CCCCCC[n+]1ccn(C)c1.O=[N+]([O-])[O-]
REPORTED: 0.000518

API: the following record is the query input.
Any idea what solubility (mole fraction) was measured for "CCCCCCCC[n+]1ccn(C)c1.O=[N+]([O-])[O-]" ?
0.00145

====

details: in n-pentane, 283.15 K
ASSAY METRIC: solubility (mole fraction)
Keep the answer to the number alone.

MOLECULAR STRING: CCCCCCCC[n+]1ccn(C)c1.O=[N+]([O-])[O-]
REPORTED: 0.000816

API: the following record is the query input.
Any idea what solubility (mole fraction) was measured for "CCCCCC[n+]1ccn(C)c1.O=[N+]([O-])[O-]" ?
0.000397

====

solubility (mole fraction) for assorted compounds
settings: in benzene, 313.15 K
Keep the answer to the number alone.

MOLECULAR STRING: CCCCCC[n+]1ccn(C)c1.O=[N+]([O-])[O-]
REPORTED: 0.000382

API: the following record is the query input.
Any idea what solubility (mole fraction) was measured for "CCCCCCCC[n+]1ccn(C)c1.O=[N+]([O-])[O-]" ?
0.00049

====

conditions: in m-xylene, 328.15 K
ASSAY METRIC: solubility (mole fraction)
Keep the answer to the number alone.

MOLECULAR STRING: CCCCCCCC[n+]1ccn(C)c1.O=[N+]([O-])[O-]
solubility (mole fraction): 0.00765

API: the following record is the query input.
Any idea what solubility (mole fraction) was measured for "CCCCCC[n+]1ccn(C)c1.O=[N+]([O-])[O-]" ?
0.00458

====

settings: in n-pentane, 278.15 K
solubility (mole fraction) for assorted molecules

MOLECULAR STRING: CCCCCC[n+]1ccn(C)c1.O=[N+]([O-])[O-]
solubility (mole fraction): 0.000359

API: the following record is the query input.
Any idea what solubility (mole fraction) was measured for "CCCCCCCC[n+]1ccn(C)c1.O=[N+]([O-])[O-]" ?
0.000687

====

solubility (mole fraction) for assorted compounds
settings: in benzene, 303.15 K
Keep the answer to the number alone.

MOLECULAR STRING: CCCCCCCC[n+]1ccn(C)c1.O=[N+]([O-])[O-]
REPORTED: 0.000357

API: the following record is the query input.
Any idea what solubility (mole fraction) was measured for "CCCCCC[n+]1ccn(C)c1.O=[N+]([O-])[O-]" ?
0.000263

====

solubility (mole fraction) for assorted compounds
details: in toluene, 323.15 K
Keep the answer to the number alone.

MOLECULAR STRING: CCCCCCCC[n+]1ccn(C)c1.O=[N+]([O-])[O-]
solubility (mole fraction): 0.000806

Any idea what solubility (mole fraction) was measured for "CCCCCC[n+]1ccn(C)c1.O=[N+]([O-])[O-]" ?
0.000686

====

conditions: in n-octane, 298.15 K
ASSAY METRIC: solubility (mole fraction)
Keep the answer to the number alone.

MOLECULAR STRING: CCCCCC[n+]1ccn(C)c1.O=[N+]([O-])[O-]
solubility (mole fraction): 0.000234

API: the following record is the query input.
Any idea what solubility (mole fraction) was measured for "CCCCCCCC[n+]1ccn(C)c1.O=[N+]([O-])[O-]" ?
0.000411

====

conditions: in o-xylene, 328.15 K
ASSAY METRIC: solubility (mole fraction)
Keep the answer to the number alone.

MOLECULAR STRING: CCCCCC[n+]1ccn(C)c1.O=[N+]([O-])[O-]
REPORTED: 0.00213

Any idea what solubility (mole fraction) was measured for "CCCCCCCC[n+]1ccn(C)c1.O=[N+]([O-])[O-]" ?
0.00675
